- Assayed System: T1, human CD73 on Calu6 cells (human, UniProt P21589 27-549)
- T1 sequence (looked up): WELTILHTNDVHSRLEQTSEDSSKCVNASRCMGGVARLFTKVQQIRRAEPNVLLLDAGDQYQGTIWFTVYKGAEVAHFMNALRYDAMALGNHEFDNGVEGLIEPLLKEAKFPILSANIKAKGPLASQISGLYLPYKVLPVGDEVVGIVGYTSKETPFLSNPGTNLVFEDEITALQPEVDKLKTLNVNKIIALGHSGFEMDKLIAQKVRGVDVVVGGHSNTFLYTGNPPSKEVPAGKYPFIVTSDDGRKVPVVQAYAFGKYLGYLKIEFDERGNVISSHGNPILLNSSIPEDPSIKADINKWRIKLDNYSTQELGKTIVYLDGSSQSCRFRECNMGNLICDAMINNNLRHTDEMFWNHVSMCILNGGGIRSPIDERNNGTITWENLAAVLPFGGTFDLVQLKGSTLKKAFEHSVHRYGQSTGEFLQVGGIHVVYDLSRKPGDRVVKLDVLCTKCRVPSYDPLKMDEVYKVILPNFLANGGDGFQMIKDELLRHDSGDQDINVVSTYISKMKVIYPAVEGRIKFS
- Assay Protocol: cell-based or functional assay
Metric Name: CD73 endocytosis ratio %, 60 minutes (%)
Number only, in %; omit the unit.

Binder	CD73 endocytosis ratio %, 60 minutes, %
CD73 antibody 22C12 (antibody, V domains shown, Mouse variable regions on human IgG heavy chain constant region and human kappa constant region (chimeric IgG); also called Clone 22C12; mAb22C12) VH: QVQFQQSGAELARPGASVKLSCKASGYTFTGYWIQWVKQRPGQGLEWIGAIYPGDDDTRYTQKFKGRATLTADTSSSTAYMQLSSLASEDSAVYYCARGNWDDWDFDVWGAGTTVTVSS VL: DIQMTQTTSSLSASLGDRVTISCRASQDISNYLNWYQQKPDGTVKLLIHYTSRLHSGVPSRFSGSGSGTDYSLTISNLEQEDIATYFCQQGDTLPWTFGGGTKLEIK	6.1

We now examine a further binder.
Query: Which CD73 endocytosis ratio %, 60 minutes value is on record for CD73 antibody 6A8 (antibody, V domains shown, Mouse variable regions on human IgG heavy chain constant region and human kappa constant region (chimeric IgG); also called Clone 6A8) VH: QVQFQQSGAELARPGTSVKLSCKASGYIFTSYWIQWIKQRPGQGLEWIGAIYPGDGDTRYTQKFKGKATLTAEKSSSTAYMQLRSLASEDSAVYYCAGFASWGQGTLLTVSA VL: DIQMTQSPSSLSASLGERVNLTCRASQDIGDSLIWLQQEPDGTIKRLIYATSSLDSGVPKRFSGSRSGSDYSLTISSLESEDLVDYYCLQYASSPFTFGGGTKLEIK ?
Reply: 16.2
